target: T1, human SIRP-α v2 D1 domain (human); test: SPR, antibody immobilised on GLC chip
T1 construct: also called human v2; human α v2
T1 sequence (chain, as listed by the source limits assumed): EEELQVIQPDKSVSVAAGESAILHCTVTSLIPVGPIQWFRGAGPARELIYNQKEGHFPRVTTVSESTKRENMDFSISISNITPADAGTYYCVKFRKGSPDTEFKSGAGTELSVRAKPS
Could you please report measured pKd for the items listed next?
// pKd here means minus log10 of the molar concentration (mol/L)

Input line: Item antibody 136 variant MutRv_I2T/mut (antibody, human IgG1, V domains shown, Human IgG1 with L234A/L235A/G237A/N297A; Labels are light chain/heavy chain) VH: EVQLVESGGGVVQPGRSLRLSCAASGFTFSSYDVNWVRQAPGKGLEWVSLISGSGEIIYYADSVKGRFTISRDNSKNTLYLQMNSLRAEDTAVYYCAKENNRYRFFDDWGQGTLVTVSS VL: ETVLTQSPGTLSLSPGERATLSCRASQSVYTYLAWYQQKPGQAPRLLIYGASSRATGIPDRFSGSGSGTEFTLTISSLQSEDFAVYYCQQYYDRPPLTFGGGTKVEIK has what recorded pKd?
Output line: 8.73

Input line: Next up: antibody 136 variant MutRv_Q38E/mut (antibody, human IgG1, V domains shown, Human IgG1 with L234A/L235A/G237A/N297A; Labels are light chain/heavy chain) VH: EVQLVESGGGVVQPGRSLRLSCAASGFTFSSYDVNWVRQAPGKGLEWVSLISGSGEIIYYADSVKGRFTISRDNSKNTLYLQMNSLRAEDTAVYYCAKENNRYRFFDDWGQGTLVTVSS VL: EIVLTQSPGTLSLSPGERATLSCRASQSVYTYLAWYQEKPGQAPRLLIYGASSRATGIPDRFSGSGSGTEFTLTISSLQSEDFAVYYCQQYYDRPPLTFGGGTKVEIK
Output line: 7.90
